tested on: MOLT-4 leukemia; assay: NCI-60 one-dose screen, 48 h (100 = growth as untreated, 0 = no growth, -100 = all killed); settings: 10 µM
This is part of a sample that, as a whole, favours compounds with a hit. Of some 83,000 tested, about 20% had one in any assay.

>  <compound>
N=C1S/C(=C/c2ccc(-c3ccc4c(c3)C(=O)NC4=O)o2)C(=O)N1c1ccc(Br)cc1

>  <study system>
MOLT-4 leukemia

>  <unit abbreviation>
%

>  <growth>
52.2

$$$$
>  <compound>
COc1ccc(C(=O)COc2cccc(/C=C3\Cc4ccccc4C3=O)c2)cc1

>  <study system>
MOLT-4 leukemia

>  <unit abbreviation>
%

>  <growth>
85.8

$$$$
>  <compound>
COc1ccc(C(=O)c2cc3c(OC)c(OC)c(OC)cc3[nH]2)cc1

>  <study system>
MOLT-4 leukemia

>  <unit abbreviation>
%

>  <growth>
50.2

$$$$
>  <compound>
CCOC(=O)C1=CSC2=NC3=C(CCC/C3=C\c3ccc(Cl)cc3)C(c3ccc(Cl)cc3)N12 (stereo not given)

>  <study system>
MOLT-4 leukemia

>  <unit abbreviation>
%

>  <growth>
82.2

$$$$
>  <compound>
Oc1ccc(/C=N/N=C2c3ccccc3-c3ccccc32)c(O)c1

>  <study system>
MOLT-4 leukemia

>  <unit abbreviation>
%

>  <growth>
77.9

$$$$
>  <compound>
Cc1cccc(N=Cc2ccccc2O)c1C

>  <study system>
MOLT-4 leukemia

>  <unit abbreviation>
%

>  <growth>
98.1

$$$$
>  <compound>
COc1cccc(C2C(C#N)=C(N)Oc3cc(N)ccc32)c1 (stereo not given)

>  <study system>
MOLT-4 leukemia

>  <unit abbreviation>
%

>  <growth>
28.9

$$$$
>  <compound>
O=C1/C=C/[C@@H](O)[C@@H]2C[C@@H](O)C[C@H]2/C=C/CCC[C@H](CCc2ccc(C(F)(F)F)cc2)O1

>  <study system>
MOLT-4 leukemia

>  <unit abbreviation>
%

>  <growth>
-21.5

$$$$
>  <compound>
CS(=O)(=O)c1nccc(-c2c(-c3cccc(OCc4ccc(F)cc4)c3)nc3sccn23)n1

>  <study system>
MOLT-4 leukemia

>  <unit abbreviation>
%

>  <growth>
24.2

$$$$
>  <compound>
OCCn1cccn1

>  <study system>
MOLT-4 leukemia

>  <unit abbreviation>
%

>  <growth>
95.7

$$$$

----------
Test system: M14 melanoma
Assay: NCI-60 one-dose screen, 48 h (100 = growth as untreated, 0 = no growth, -100 = all killed)
Details: 10 µM
Description: Growth inhibition of the M14 human tumor cell line is measured as a screen for anti-cancer activity. Cells are grown in 96 well plates and exposed to the test compound for 48 hours. Compounds are tested at a single concentration, which is 10^-5 M for most compounds. The reported endpoint is percent growth (GI% or GIPRCNT), where numbers from 0 - 100% represent growth inhibition, and numbers from -100% - 0 represent cell death. For example, a value of 40 represents 60% growth inhibition. […]
Compounds without any hit were thinned out: in the full panel of roughly 83,000, 20% have a hit.

>  <compound>
OC[C@H]1OC([S-])[C@H](O)[C@@H](O)[C@@H]1O.[Au+] (stereo not given in full)

>  <growth (%)>
81.6

$$$$
>  <compound>
CSc1nc2c(c(=O)n1C)CN(Cc1ccccc1)C(=O)CN2

>  <growth (%)>
88.6

$$$$
>  <compound>
C=C1CCC2(C#N)[C@H]3[C@H](CC[C@@H]2C)[C@@H](C)C[C@@H](CC(C)(C)NC(=O)CN2CCC2=O)[C@H]13 (stereo not given in full)

>  <growth (%)>
54.9

$$$$
>  <compound>
CN1C(C(=O)Nc2ccccn2)=C(O)c2sc(Cl)cc2S1(=O)=O

>  <growth (%)>
108

$$$$
>  <compound>
CC(C)(C)OC(=O)N1CCc2c(sc3ncnc(N/N=C/c4cccc(Br)c4)c23)C1

>  <growth (%)>
43

$$$$
>  <compound>
COc1ccc(/C(=N\N)C(=O)c2ccccc2)cc1 (tested in a mixture with another compound)

>  <growth (%)>
124

$$$$
>  <compound>
CCOC(=O)N/N=C/c1ccc(OC)c(OC)c1

>  <growth (%)>
113

$$$$
>  <compound>
Cc1ccc(Cl)cc1NC(=O)CCl

>  <growth (%)>
62.7

$$$$
>  <compound>
COC(=O)C1OC1c1cc([N+](=O)[O-])ccc1OC (stereo not given)

>  <growth (%)>
95

$$$$
>  <compound>
Cc1nn(-c2ccccc2)c2nc(Cl)c(C=O)c(-c3ccccc3)c12

>  <growth (%)>
111

$$$$
